# Test summary: yeast display, Sf9 membrane polyspecificity reagent, FACS + sequencing; frameworks hold sequencing errors
Result type: polyreactivity (PSR sort gate)

Examples from the recorded data:
INSERT INTO results (seq_string, endpoint_value) VALUES
  ('QVQLVESGGGLVQAGGSLRLSCAASGLIFTGYVMGWYRQAPGKERELVAVIRSGDSTYYADSVKGRFTISRDNAKNTVYLQMNSLKPEDTAVYYCAKYDTGGRAHDYWGQGTQVTVSS', 'low polyreactivity'),
  ('QVQLVESGGGLVQAGGSLRLSCAASGFIFNAYVMGWYRQAPGKERELVAAITASGGSTYYADSVKGRFTISRDNAKNTVYLQMNSLKPEDTAVYYCAAAHPYDSRFDYWGQGTQVTVSS', 'high polyreactivity'),
  ('QVQLVESGGGLVQAGGSLRLSCAASGFTFVSYAMGWYRQAPGKERELVAAISKRGGSTSYADSVKGRFTISRDNAKNTVYLQMNSLKPEDTAVYYCNKRSYAWSPHVDYWGQGTQVTVSS', 'high polyreactivity'),
  ('QVQLVESGGGLVQAGGSLRLSCAASGYIFSYYTMGLYRQAPGKERELVASNRWGGGRTYYADSVKGRFTISRDNAKNTVYLQMNSLKPEDTAVYYCNVKSSRLLDVGRMEYWGQGTQVTVSS', 'high polyreactivity');

# next sequence below
## Task Answer with reported polyreactivity (PSR sort gate) of QVQLVESGGGLVQAGGSLRLSCAASGSIKQNSMGWYRQAPGKERELVAAIDWDGSSTYYADSVKGRFTISRDNAKNTVYLQMNSLKPEDTAVYYCNTDYTGPDGTDEYDYWGQVTQVTVSS
## Result low polyreactivity

---

# Test summary: yeast display, Sf9 membrane polyspecificity reagent, FACS + sequencing; frameworks hold sequencing errors
Result type: polyreactivity (PSR sort gate)

Examples from the recorded data:
INSERT INTO measurements (seq_string, endpoint_value) VALUES
  ('QVQLVESGGGLVQAGGSLRLSCAASGRTFEGNAMGWSRQAPGKERELVAAISTSGGRTYYADSVKGRFTISRDNAKKSVYLQMNSLKPEDTAVYYCATSFYVYPTYYILDYWGQGTQVTVSS', 'low polyreactivity'),
  ('QGQLVESGGGLVQAGGSLRLSCAASGSISLYAMGWYRQAPGKERELVAAITKSGGSTYYADSVKGRFTISRDNAKNTVYLQMHSLKPEDTAVYYCNRGGGERKYNYWGQGTQVTVSS', 'high polyreactivity'),
  ('QVQLVESGGGLVQEGCSLRLTCAASGSIFYYYAMGWYRQAPRKERELVATITWNGAGTFYADSVKGRFTISRDNAKNTVYLQMNSLKPEDTAVYYCAASWYGESGYDYWGQGTQVTVSS', 'low polyreactivity'),
  ('QVQIVESGGGLVQAGGSLRLSCAASGFTSQFYAMGWYRQAPGKEMELVAAISSGSSTYYADSVKGRFTSSRDNAKNTVYLQMNSLKPEDTAVYYCATTHKTLRRYDSWGQGTKVTVSS', 'low polyreactivity'),
  ('QVQLVESGGGLVQAGGSLRLSCAASGSIFGSNTMGWYRQAPGKERELVAAINSSGGSTYYADSVKGRFTISRDNAKNTVYLQMNSLKPEDTEVYYCNAASYRFFPYLYYYWGQGTQVTVSS', 'high polyreactivity');

## Task Answer with reported polyreactivity (PSR sort gate) of QVQLVESGGGLVQAGGSLRLSCAASGRIFSVYVMGWYRPAPGKERELVAAISGRDGTTYYADSVKGRFTISRDNAKNTVYLQMNSLKPEDTAVYYCAAEDIDFTPMDYWGQGTQVTVSS
## Result high polyreactivity

## Task Answer with reported polyreactivity (PSR sort gate) of QVQLVESGGGLVQAGGSLRFSCAASGSTIPPNAMGWYRQAPGKERELVAAINSTGSTNYADSVKGRFTISRDNAKNTVSLQMNSLQPEDTAVYYCAAEGLPYVRVFDFVSRYDYWGQGTQVTVSS
## Result low polyreactivity

## Task Answer with reported polyreactivity (PSR sort gate) of QVQLVESGGGLVQAGGSLRLSCAASGRIFPDNTLGWYRQAPGKERELVAVITYSGGSTYYADSVKGRFTISRDNAKNTVYLQMNSLKPEDTAVYYCAARDYYIWFAEVDSWGQGTQVTVSS
## Result low polyreactivity

## Task Answer with reported polyreactivity (PSR sort gate) of QVQLVESGGGLVHAGGSLRLSCAGSGSTFRPYAMGWYRQAPGKERELVAAIRKIGGRTYYADSVKGRFTISRDNAKNTVYLQMNSLKPEDTAVYNCNKRIGGGVHAYNYWGQGTQVSVSS
## Result low polyreactivity

## Task Answer with reported polyreactivity (PSR sort gate) of QVQLVESGGGLVQAGGSLRLSCAASGFTFQSYAMGWYRQAPGKESELVAAISWSGGSTYYADSVKGRFTISRDNAKNTVYLEMNSLKPEDTAVYYCAADAPRSYRFGYWGQGTQVTVSS
## Result high polyreactivity

## Task Answer with reported polyreactivity (PSR sort gate) of QVQLVESGGGLVQAGGILRLSCAASGRIFYYNTMGWYRQAPGKERELVAAITRGGGRTYYADSVKGRFTISRDNAKNTVYLQMNSLKPEDTAVYYCNTRSTLGYYWGQGTQVTVSS
## Result high polyreactivity
